- test_method_notes: Light absorption maxima and molar extinction coefficients
- Assay type: physicochemical
- condition_label: in water (W)
reported_property: λmax Q
// return just the number, without any unit appended

Answered cases to consult:
[[record]]
molecule = "O=S(=O)([O-])c1cccc(P(c2cccc(S(=O)(=O)[O-])c2)c2cccc(S(=O)(=O)[O-])c2)c1.O=S(=O)([O-])c1cccc(P(c2cccc(S(=O)(=O)[O-])c2)c2cccc(S(=O)(=O)[O-])c2)c1.[Na+].[Na+].[Na+].[Na+].[Na+].[Na+].c1ccc2cc3c(cc2c1)C1=NC2=NC(=Nc4c5cc6ccccc6cc5c5[n]4[Ru][n]4c(c6cc7ccccc7cc6c4=N5)=NC3=N1)c1cc3ccccc3cc12 [RuNc(TPPTS)2]"
number = 720

[[record]]
molecule = "N#Cc1cccc(C(=O)O)c1.N#Cc1cccc(C(=O)O)c1.c1ccc2c(c1)C1=NC3=NC(=Nc4c5ccccc5c5[n]4[Ru][n]4c(c6ccccc6c4=N5)=NC2=N1)c1ccccc13 [RuPc(CBA)2]"
number = 650

[[record]]
molecule = "O=S(=O)([O-])c1ccc[n+]([Ru-2]2([n+]3cccc(S(=O)(=O)[O-])c3)[n]3c4c5cc6ccccc6cc5c3N=C3N=C(N=c5c6cc7ccccc7cc6c([n]52)=NC2=NC(=N4)c4cc5ccccc5cc42)c2cc4ccccc4cc23)c1.[Na+].[Na+] [RuNc(3PS)2]"
number = 730


Task: Reported λmax Q for Cc1cc2c(cc1C)C1=Nc3c4cc(C)c(C)cc4c4[n]3[Ru][n]3c(c5cc(C)c(C)cc5c3=NC3=NC(=N4)c4cc(C)c(C)cc43)=NC2=N1.O=C(O)c1cncc(C(=O)O)c1.O=C(O)c1cncc(C(=O)O)c1 [Ru(oMe)8 Pc(35PDCA2)] : what is it?
Output: 641

Task: Reported λmax Q for O=C([O-])c1cccc(P(c2ccccc2)c2ccccc2)c1.[Na+].c1ccc2c(c1)C1=NC2=Nc2c3ccccc3c3[n]2[Ru][n]2c(c4ccccc4c2=NC2=NC(=N3)c3ccccc32)=N1.c1ccncc1 [RuPc(py)(TPPMC)] : what is it?
Output: 644

Task: Reported λmax Q for O.O.O.O.O=S(=O)([O-])CCc1cc[n+]([Ru-2]2([n+]3ccc(CCS(=O)(=O)[O-])cc3)[n]3c4c5ccccc5c3N=C3N=C(N=c5c6ccccc6c([n]52)=NC2=NC(=N4)c4ccccc42)c2ccccc23)cc1.[K+].[K+] [RuPc(PES)2 (Ex 2)] : what is it?
Output: 632

Task: Reported λmax Q for O=C(O)c1ccncc1C(=O)O.O=C(O)c1ccncc1C(=O)O.c1ccc2c(c1)C1=NC2=Nc2c3ccccc3c3[n]2[Ru][n]2c(c4ccccc4c2=NC2=NC(=N3)c3ccccc32)=N1 [RuPc(34PDCA)2] : what is it?
Output: 630

Task: Reported λmax Q for NCCS(=O)(=O)[O-].NCCS(=O)(=O)[O-].O.O.O.O.O.O.[Na+].[Na+].c1ccc2c(c1)C1=NC3=NC(=Nc4c5ccccc5c5[n]4[Ru][n]4c(c6ccccc6c4=N5)=NC2=N1)c1ccccc13 [RuPc(Tau)2 (Ex 3), Na2 [Ru(Pc)bis(taurine)]hexahydrate] : what is it?
Output: 634

Task: Reported λmax Q for O=C(O)c1cccnc1.O=C(O)c1cccnc1.c1ccc2c(c1)C1=NC2=Nc2c3ccccc3c3[n]2[Ru][n]2c(c4ccccc4c2=NC2=NC(=N3)c3ccccc32)=N1 [RuPc(Nic)2] : what is it?
Output: 630

Task: Reported λmax Q for NCCC(=O)[O-].NCCC(=O)[O-].[K+].[K+].c1ccc2cc3c(cc2c1)C1=NC2=NC(=Nc4c5cc6ccccc6cc5c5[n]4[Ru][n]4c(c6cc7ccccc7cc6c4=N5)=NC3=N1)c1cc3ccccc3cc12 [RuNc(β-ALA)2] : what is it?
Output: 730
